Measured EC50, HEK293 CSF1R/SRE reporter, biological replica 1, listed per entry.
target: CSF1 receptor (CSF1R) (UniProt P07333); assay: cell-based or functional assay
Sequence (P07333 20-972 limits assumed): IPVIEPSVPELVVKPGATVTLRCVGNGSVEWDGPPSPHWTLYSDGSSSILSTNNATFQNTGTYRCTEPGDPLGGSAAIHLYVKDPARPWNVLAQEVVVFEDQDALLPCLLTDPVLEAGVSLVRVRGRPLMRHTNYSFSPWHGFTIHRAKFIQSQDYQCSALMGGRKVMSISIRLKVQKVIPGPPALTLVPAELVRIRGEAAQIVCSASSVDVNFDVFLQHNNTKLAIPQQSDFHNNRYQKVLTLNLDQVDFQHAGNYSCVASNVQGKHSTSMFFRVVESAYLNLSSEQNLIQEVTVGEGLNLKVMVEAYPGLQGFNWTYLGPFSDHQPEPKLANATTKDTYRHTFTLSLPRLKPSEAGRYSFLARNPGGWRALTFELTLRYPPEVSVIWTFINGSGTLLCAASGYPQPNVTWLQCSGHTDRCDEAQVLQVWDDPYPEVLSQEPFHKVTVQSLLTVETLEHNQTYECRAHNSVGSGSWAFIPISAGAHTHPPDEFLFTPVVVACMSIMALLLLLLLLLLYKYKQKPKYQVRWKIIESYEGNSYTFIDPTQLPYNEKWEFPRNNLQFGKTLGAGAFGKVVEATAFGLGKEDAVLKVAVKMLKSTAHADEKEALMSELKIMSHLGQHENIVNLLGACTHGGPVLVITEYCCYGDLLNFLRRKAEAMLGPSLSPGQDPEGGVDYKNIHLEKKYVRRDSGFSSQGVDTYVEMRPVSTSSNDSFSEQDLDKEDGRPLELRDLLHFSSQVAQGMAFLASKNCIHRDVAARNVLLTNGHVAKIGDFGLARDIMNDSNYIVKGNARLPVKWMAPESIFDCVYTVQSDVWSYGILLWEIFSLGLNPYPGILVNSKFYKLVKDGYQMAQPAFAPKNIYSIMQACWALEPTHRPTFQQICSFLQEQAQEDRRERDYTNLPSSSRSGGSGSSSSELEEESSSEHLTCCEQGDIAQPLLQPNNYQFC
Just the number, please, no unit attached.

// known answers, use as guide
CSF1 Q79L (ligand) EEVSEYCSHMIGSGHLQSLQRLIDSQMETSCQITFEFVDQEQLKDPVCYLKKAFLLVQDIMEDTMRFRDNTPNAIAIVLLQELSLRLKSCFTKDYEEHDKACVRTFYETPLQLLEKVKNVFNETKNLLDKDWNIFSKNCNNSFAECSSQD: 6.76e-09
CSF1 S18Q (ligand) EEVSEYCSHMIGSGHLQQLQRLIDSQMETSCQITFEFVDQEQLKDPVCYLKKAFLLVQDIMEDTMRFRDNTPNAIAIVQLQELSLRLKSCFTKDYEEHDKACVRTFYETPLQLLEKVKNVFNETKNLLDKDWNIFSKNCNNSFAECSSQD: 2.51e-09

Now look at this entry.
get_value(item= CSF1 V78W (ligand) EEVSEYCSHMIGSGHLQSLQRLIDSQMETSCQITFEFVDQEQLKDPVCYLKKAFLLVQDIMEDTMRFRDNTPNAIAIWQLQELSLRLKSCFTKDYEEHDKACVRTFYETPLQLLEKVKNVFNETKNLLDKDWNIFSKNCNNSFAECSSQD , readout=EC50, HEK293 CSF1R/SRE reporter, biological replica 1) returns 6.23e-09
